Target: progesterone receptor B (Homo sapiens)
Construct: purchased Eurofins Panlabs, Inc
Assay: Progesterone receptor B radioligand binding assay
Details: Cheng-Prusoff from IC50, reference agonist; read-out: Ki progesterone receptor B
metric_name: pKi
As a rule, pKi stands for the negative log10 of the concentration, concentration in M.

Q) Look at this molecule and give its reported pKi. CCC(=O)[C@@]1(C)CC[C@H]2[C@@H]3CCC4=CC(=O)CCC4=C3CC[C@@]21C [R-2050, reference compound]
A) 9.59

###

Target: progesterone receptor B (Homo sapiens, UniProt P06401)
Construct: purchased Eurofins Panlabs, Inc
Sequence (P06401 whole entry): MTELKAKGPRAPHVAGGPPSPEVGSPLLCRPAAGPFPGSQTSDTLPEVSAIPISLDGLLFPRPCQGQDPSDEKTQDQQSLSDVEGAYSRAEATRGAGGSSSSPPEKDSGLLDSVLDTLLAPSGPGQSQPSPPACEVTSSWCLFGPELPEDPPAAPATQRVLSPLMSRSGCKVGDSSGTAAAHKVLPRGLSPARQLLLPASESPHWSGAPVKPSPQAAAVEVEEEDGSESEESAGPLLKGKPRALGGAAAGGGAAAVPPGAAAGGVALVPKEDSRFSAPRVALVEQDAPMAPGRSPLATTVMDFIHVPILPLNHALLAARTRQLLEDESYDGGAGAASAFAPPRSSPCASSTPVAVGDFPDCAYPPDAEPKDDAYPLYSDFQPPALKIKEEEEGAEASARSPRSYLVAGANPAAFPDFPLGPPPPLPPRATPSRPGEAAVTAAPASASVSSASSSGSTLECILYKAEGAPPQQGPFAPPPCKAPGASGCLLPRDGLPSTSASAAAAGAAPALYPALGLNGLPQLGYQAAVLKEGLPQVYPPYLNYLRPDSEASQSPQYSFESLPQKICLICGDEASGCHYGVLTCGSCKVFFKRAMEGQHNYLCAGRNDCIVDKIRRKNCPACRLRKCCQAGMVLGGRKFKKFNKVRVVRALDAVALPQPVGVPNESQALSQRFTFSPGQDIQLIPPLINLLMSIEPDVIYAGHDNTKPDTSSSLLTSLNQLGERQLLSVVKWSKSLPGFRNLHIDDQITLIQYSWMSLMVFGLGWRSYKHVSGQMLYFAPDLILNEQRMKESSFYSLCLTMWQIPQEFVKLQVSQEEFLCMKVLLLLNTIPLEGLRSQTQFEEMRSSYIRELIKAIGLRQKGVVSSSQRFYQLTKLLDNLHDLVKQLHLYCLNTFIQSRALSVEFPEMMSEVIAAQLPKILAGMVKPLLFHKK
Experiment: Progesterone receptor B radioligand binding assay
Conditions: radioligand binding, 20 hrs, reference agonist; read-out: IC50 progesterone receptor B
metric_name: pIC50
Note on pIC50: it is the negative log10 of concentration, concentration in mol/L.

Q) For the molecule shown here, CCC(=O)[C@@]1(C)CC[C@H]2[C@@H]3CCC4=CC(=O)CCC4=C3CC[C@@]21C [R-2050, reference compound] , give the reported pIC50.
A) 9.48
